# Test system: HCT-116 colon
# assay.method.text: NCI tumour cell line growth inhibition, 48 h; in the data active = GI50 below about 0.43 µM; inactive = the rest
Hi there, use one of these labels in your reply, thanks! active, inactive

// known answers, use as guide
compound=COc1ccc(/C=C2\N=C(c3ccccc3)N(c3cc(C(F)(F)F)ccc3Cl)C2=O)cc1OC category_label=inactive
compound="CC(C)(C)C(=O)OCOP(=O)(OCOC(=O)C(C)(C)C)C1CCCN(OC(=O)c2ccccc2)C1=O (stereo not drawn)" category_label=inactive
compound=CC1(C)CC[C@]2(C(=O)n3ccnc3)CC[C@]3(C)[C@H](C(=O)C=C4[C@@]5(C)C=C(C#N)C(=O)C(C)(C)[C@@H]5CC[C@]43C)[C@@H]2C1 category_label=active
compound=O=C(/C=C/C=C/c1ccccc1)c1ccc(Nc2nc(Nc3ccccc3)nc(Nc3ccccc3)n2)cc1 category_label=inactive
compound="Cn1cc(C2=C(c3c4n(c5ccccc35)CC(CN)C4)C(=O)NC2=O)c2ccccc21 (stereo not drawn)" category_label=inactive
compound=O=C(/C=C/c1ccccn1)c1ccccc1O category_label=inactive
compound=Fc1ccc(CNc2c3ccccc3nc3ccccc23)cc1 category_label=inactive

Per the records of this test, what outcome belongs to CC1(C)CC(=O)C2=C(C1)NC(SSC1=C(C#N)C(c3ccc(Br)cc3)C3=C(CC(C)(C)CC3=O)N1)=C(C#N)C2c1ccc(Br)cc1 (stereo not drawn) ?
inactive
